# target-under-test: T1, Dimeric fibrinogen-like domain of human Ang-2 conjugated to human IgG1 (human)
# T1 construct: also called Dimeric Human Ang-2FD; Human Ang-2FD-hFc
# T1 sequence (chain, as listed by the source limits assumed): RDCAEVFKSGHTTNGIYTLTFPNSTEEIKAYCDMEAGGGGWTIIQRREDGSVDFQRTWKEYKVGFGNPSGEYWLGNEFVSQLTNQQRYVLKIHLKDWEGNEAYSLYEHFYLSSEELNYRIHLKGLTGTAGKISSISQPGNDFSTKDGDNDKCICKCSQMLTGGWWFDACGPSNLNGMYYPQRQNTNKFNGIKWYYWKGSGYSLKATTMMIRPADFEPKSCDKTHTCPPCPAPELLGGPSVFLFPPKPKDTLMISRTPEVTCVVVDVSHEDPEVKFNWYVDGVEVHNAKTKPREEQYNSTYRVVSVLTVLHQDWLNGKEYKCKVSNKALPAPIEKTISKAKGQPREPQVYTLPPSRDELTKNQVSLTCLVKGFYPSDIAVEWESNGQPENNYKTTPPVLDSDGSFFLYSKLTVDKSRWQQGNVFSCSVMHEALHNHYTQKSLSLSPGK
# test: SPR, antibody captured, room temp
Listed here are binders together with their documented pKd.
Units for pKd: none; it is -log10 of a concentration expressed in mol/L.

Below: 4 binders and their reported pKd.
Task item: Fill in: pKd of H2M743N (antibody, V domains shown) VH: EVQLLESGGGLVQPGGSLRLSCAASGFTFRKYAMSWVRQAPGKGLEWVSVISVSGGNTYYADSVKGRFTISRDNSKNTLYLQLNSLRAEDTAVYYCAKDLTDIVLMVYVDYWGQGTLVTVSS VL: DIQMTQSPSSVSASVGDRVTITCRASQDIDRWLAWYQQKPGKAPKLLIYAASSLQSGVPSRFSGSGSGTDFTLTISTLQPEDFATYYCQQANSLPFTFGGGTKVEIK is ___
Reply: 9.81

Task item: Query (binder): H2M744N (antibody, V domains shown) VH: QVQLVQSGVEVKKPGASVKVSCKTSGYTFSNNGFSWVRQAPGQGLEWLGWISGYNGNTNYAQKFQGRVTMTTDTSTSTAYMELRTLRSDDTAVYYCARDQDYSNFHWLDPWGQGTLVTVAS VL: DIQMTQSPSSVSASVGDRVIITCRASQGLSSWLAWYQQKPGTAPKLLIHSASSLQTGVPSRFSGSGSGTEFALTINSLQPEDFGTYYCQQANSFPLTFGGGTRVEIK ; field requested: pKd
Reply: 10.00

Task item: // returns reported pKd for input H2M742N (antibody, V domains shown) VH: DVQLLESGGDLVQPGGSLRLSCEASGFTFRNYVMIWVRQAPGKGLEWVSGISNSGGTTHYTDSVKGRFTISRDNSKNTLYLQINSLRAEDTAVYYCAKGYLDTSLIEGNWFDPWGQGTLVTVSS VL: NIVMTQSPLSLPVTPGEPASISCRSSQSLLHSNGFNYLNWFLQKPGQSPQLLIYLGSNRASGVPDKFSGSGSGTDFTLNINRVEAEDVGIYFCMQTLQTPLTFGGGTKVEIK
Reply: 9.53

Task item: State the recorded pKd for this entry: H1M724N (antibody, V domains shown) VH: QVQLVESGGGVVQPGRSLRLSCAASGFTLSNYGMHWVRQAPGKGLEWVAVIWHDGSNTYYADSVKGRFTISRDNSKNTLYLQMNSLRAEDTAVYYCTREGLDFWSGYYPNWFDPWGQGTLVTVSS VL: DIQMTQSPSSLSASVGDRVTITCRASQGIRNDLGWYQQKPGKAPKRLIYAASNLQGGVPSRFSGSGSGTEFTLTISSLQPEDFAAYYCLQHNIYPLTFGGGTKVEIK
Reply: 9.75

With those in mind, consider the next binder.
Task item: Give its pKd value. Item: H2M749N (antibody, V domains shown, Hybridoma-derived chimeric antibody, mouse constant domains; also called H1M749N; H1M749) VH: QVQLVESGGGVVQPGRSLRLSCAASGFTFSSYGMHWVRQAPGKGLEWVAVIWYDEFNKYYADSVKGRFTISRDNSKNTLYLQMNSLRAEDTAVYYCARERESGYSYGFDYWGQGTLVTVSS VL: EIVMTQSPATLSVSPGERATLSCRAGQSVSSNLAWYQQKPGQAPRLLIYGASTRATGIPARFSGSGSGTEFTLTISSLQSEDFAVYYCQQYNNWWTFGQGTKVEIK
Reply: 9.78

# credit: patent US20150147342A1
